Values from PubChem BioAssay (NCI)

- Tested on: PC-3 prostate
- Procedure details: NCI-60 one-dose screen, 48 h (100 = growth as untreated, 0 = no growth, -100 = all killed)
- Run parameters: 10 µM unless noted
The panel holds about 83,000 compounds, 20% with a hit somewhere; the sample as a whole holds those more often.
# cutoff 70% applies to growth; >= gives 1, < gives 0

Cc1cc2nc3c4cccc(O)c4n(CCN(C)C)c3nc2cc1C = 0
Cn1nc(CC#N)c2c(=N)n(N)cnc21 = 1
COc1cc(CC(=O)n2ncc3ccc(N)cc32)cc(OC)c1OC = 1
COC1=CC(=O)c2ccccc2C1=O = 0
COc1cc2c(c(OC)c1OC)CCC(c1cccc(NC(=O)c3cccc(Br)c3)c1)O2 (centres undefined) = 1

Query string: Does the compound Cc1cccc(NC(=O)Nc2ccc(-c3ccc4c(c3)NC(=O)/C4=C\c3ccc[nH]3)cc2)c1 have recorded growth that is 70% or more?
Result string: 1

Query string: Also, CC(Sc1nc2ccccc2c(=O)n1CCc1ccc(S(N)(=O)=O)cc1)C(=O)Nc1ccc(Cl)cc1 (centres undefined) please.
Result string: 1

Query string: Also, CCc1ccc(-c2cn3ccnc3c(-c3ccc4ncn(Cc5ccccc5)c4c3)n2)cc1 please.
Result string: 0

====

- System: SNB-19 CNS
- Procedure details: NCI-60 one-dose screen, 48 h (100 = growth as untreated, 0 = no growth, -100 = all killed)
- Run parameters: 10 µM unless noted
About 83,000 compounds went through this panel and 20% of them were active in at least one assay; those are over-represented in the sample as a whole.
For each entry below, report its growth value.
Give bare numbers, in %.

O=C1OC(Cc2ccccc2)C1c1ccccc1 (centres undefined) = 99.1

Please look at the items below and tell me growth for each one, in order.
1. COc1cc(/C=C\C(=O)O)ccc1OCc1ccccc1
2. COc1cc2c(c(OC)c1OC)-c1ccc(NNC(=S)N(Cc3cccc(C[N+](Cc4cccc(CNC56CC7CC(CC(C7)C5)C6)c4)(Cc4cccc(CNC56CC7CC(CC(C7)C5)C6)c4)Cc4cccc(CN(C(=S)NNc5ccc6c(cc5=O)[C@@H](NC(C)=O)CCc5cc(OC)c(OC)c(OC)c5-6)C56CC7CC(CC(C7)C5)C6)c4)c3)C34CC5CC(CC(C5)C3)C4)c(=O)cc1[C@@H](NC(C)=O)CC2 (some centres undefined)
3. C/C(=N\NC(=O)CSc1nc2ccccc2c(=O)n1CCc1ccc(S(N)(=O)=O)cc1)c1ccccn1

Result string:
1. 99.2
2. 16
3. 46.6

====

- Tested on: OVCAR-3 ovarian
- Procedure details: NCI-60 one-dose screen, 48 h
- Run parameters: 10 µM unless noted
This is part of a sample that, as a whole, favours compounds with a hit. Of some 83,000 tested, about 20% had one in any assay. Calls of active or inactive are those of the source. Rule for the calls: active = growth percent below 10; inactive = the rest.
# output must be one of 1.0 for active, 0.0 for inactive

Here's what some known entries look like.
O=C(C[n+]1cccc2ccccc21)c1ccc(O)c(O)c1 = 0.0
O=C(CCN1CCCC1)Nc1ccc2c(NCc3ccccc3)c3ccccc3nc2c1 = 1.0
Cc1nn(-c2ccccc2)c(Oc2c(Cl)cccc2Cl)c1/C=N/N=c1\sc2ccccc2n1C = 0.0
COc1ccc(/C=C/c2nc(Nc3ccc(Cl)cc3)c3ccccc3n2)cc1 = 0.0
Cc1c(C(=O)NCCC(=O)NO)sc2ncnc(Nc3ccc(NC(=O)Nc4cccc(C(F)(F)F)c4)cc3)c12 = 0.0
O=C(CCN1CCCC1)Nc1ccc2c(NCCCCc3ccccc3)c3ccccc3nc2c1 = 1.0

Query string: Write down the call the test reported for this molecule. Item: N#CC(C(=O)/C(=N/NC(=O)c1ccccc1O)C(C#N)c1ccccc1)c1ccccc1 (stereo not given)
Result string: 0.0

Query string: Also, COc1ccc(CCn2cncc2-c2c[nH]c3ccccc23)cc1 please.
Result string: 0.0
